Species on record: Homo sapiens
Assay remarks: Selectivity ratio of IC50 for human recombinant cytoplasmic GST-tagged EGFR (668 to 1210 residues) to IC50 for human recombinant cytoplasmic GST-tagged EGFR T790M/L858R double mutant (668 to 1210 residues)
Kindly apply the following: 1 (yes) if Ratio IC50 is less than 2, 0 (no) in every other case.

>  <Smiles data>
C=CC(=O)Nc1cc(Nc2ncnc(-c3cn(C)c4ccccc34)c2F)c(OC)cc1N(C)CCN(C)C

>  <Group label>
1 (yes)

$$$$
>  <Smiles data>
C=CC(=O)Nc1cc(Nc2nccc(-c3cn4c5c(cccc35)CCC4)n2)c(OC)cc1N(C)CCO

>  <Group label>
0 (no)

$$$$
>  <Smiles data>
C=CC(=O)Nc1cc(Nc2cc(-c3cn(C)c4ccccc34)nc(C)n2)c(OC)cc1N(C)CCN(C)C

>  <Group label>
0 (no)

$$$$
>  <Smiles data>
C=CC(=O)Nc1cc(Nc2nccc(-c3cn4c5c(cccc35)CCC4)n2)c(OC)cc1N1CCN(C)CC1

>  <Group label>
0 (no)

$$$$
>  <Smiles data>
C=CC(=O)Nc1cc(Nc2nccc(-c3cn4c5c(cccc35)CCC4)n2)c(OC)cc1N1CC(CCN(C)C)C1

>  <Group label>
0 (no)

$$$$
>  <Smiles data>
C=CC(=O)Nc1cc(Nc2nccc(-c3cn4c5c(cccc35)CCC4)n2)c(OC)cc1N(C)CCN(C)C(C)=O

>  <Group label>
0 (no)

$$$$
>  <Smiles data>
C=CC(=O)Nc1cc(Nc2nccc(-n3cc(C)c4ccccc43)n2)c(OC)cc1N(C)CCN(C)C

>  <Group label>
0 (no)

$$$$
>  <Smiles data>
C=CC(=O)Nc1cc(Nc2ncnc(-c3cn(C)c4ccccc34)c2OC)c(OC)cc1N(C)CCN(C)C

>  <Group label>
1 (yes)

$$$$
>  <Smiles data>
C=CC(=O)Nc1cc(Nc2nccc(-c3cn4c5c(cccc35)CCC4)n2)c(OC)cc1N(C)CC(=O)N(C)C

>  <Group label>
0 (no)

$$$$

* * *

Some molecules, each annotated with its measured CLH.
Assay remarks: Intrinsic clearance in rat hepatocytes assessed per million cells
Format: ADME, cell-based, Hepatocyte
Quantity: CLH (µL/min/10^6 cells)

>  <Smiles data>
C=CC(=O)Nc1cc(Nc2nccc(-c3cn4c5c(cccc35)CCC4)n2)c(OC)cc1N(C)CCN(C)C

>  <Quantity>
CLH

>  <Result value>
21

$$$$
>  <Smiles data>
C=CC(=O)Nc1cc(Nc2nccc(-c3cn(C)c4ccccc34)n2)c(OC)cc1N(C)CCN(C)C

>  <Quantity>
CLH

>  <Result value>
12

$$$$

* * *

Assay remarks: AUC (0 to infinity) in Sprague-Dawley rat at 10 mg/kg, po administered via gavage by LC-MS/MS analysis
Format: ADME, organism-based
Parameters: dose 10 mg/kg, route oral, time infinity
Recorded conditions: in vivo

>  <Smiles data>
C=CC(=O)Nc1cc(Nc2nccc(-c3cn4c5c(cccc35)CCC4)n2)c(OC)cc1N(C)CCN(C)C

>  <AUC(0-inf) / ng·h/mL>
1020

$$$$

* * *

Assay remarks: AUC (0 to 24 hrs) in Sprague-Dawley rat at 10 mg/kg, po administered via gavage by LC-MS/MS analysis
Format: ADME, organism-based
Parameters: time < 24 hr, dose 10 mg/kg, route oral
Recorded conditions: in vivo

>  <Smiles data>
C=CC(=O)Nc1cc(Nc2nccc(-c3cn4c5c(cccc35)CCC4)n2)c(OC)cc1N(C)CCN(C)C

>  <AUC(0-t) at 24 h / ng·h/mL>
995

$$$$

* * *

System: Epidermal growth factor receptor (Homo sapiens)
Assay remarks: Inhibition of human recombinant cytoplasmic GST-tagged EGFR (668 to 1210 residues) expressed in baculovirus using TK-substrate-biotin preincubated for 15 mins followed by substrate addition measured after 60 mins by FRET-based Z'-Lyte assay
Recorded conditions: read-out: IC50
Kindly apply the following: YES if IC50 is less than 300 nM, NO in every other case.

>  <Smiles data>
C=CC(=O)Nc1cc(Nc2nccc(-c3cn4c5c(cccc35)CCC4)n2)c(OC)cc1N(C)CCN(C)C

>  <Group label>
YES

$$$$
>  <Smiles data>
C=CC(=O)Nc1cc(Nc2nccc(-c3cn4c5c(cccc35)CCC4)n2)c(OC)cc1N(C)CCN(C)C(C)=O

>  <Group label>
NO

$$$$
>  <Smiles data>
C=CC(=O)Nc1cc(Nc2nc(OC)cc(-c3cn(C)c4ccccc34)n2)c(OC)cc1N(C)CCN(C)C

>  <Group label>
NO

$$$$
>  <Smiles data>
C=CC(=O)Nc1cc(Nc2ncnc(-c3cn(C)c4ccccc34)c2F)c(OC)cc1N(C)CCN(C)C

>  <Group label>
YES

$$$$
>  <Smiles data>
C=CC(=O)Nc1cc(Nc2nccc(-c3cn4c5c(cccc35)CCC4)n2)c(OC)cc1N(C)CC(=O)N(C)C

>  <Group label>
NO

$$$$
>  <Smiles data>
C=CC(=O)Nc1cc(Nc2nccc(-c3cn4c5c(cccc35)CCC4)n2)c(OC)cc1N1CC(CCN(C)C)C1

>  <Group label>
YES

$$$$
>  <Smiles data>
C=CC(=O)Nc1cc(Nc2cc(-c3cn(C)c4ccccc34)nc(C)n2)c(OC)cc1N(C)CCN(C)C

>  <Group label>
YES

$$$$
>  <Smiles data>
C=CC(=O)Nc1cc(Nc2nccc(-c3cn4c5c(cccc35)CCC4)n2)c(OC)cc1N1CCN(C)CC1

>  <Group label>
NO

$$$$

* * *

Some molecules, each annotated with its measured CLint scaled.
Assay remarks: Intrinsic clearance in monkey liver microsomes
Format: ADME, Macaca mulatta, microsome
Recorded conditions: rhesus monkey, read-out: CLH
Quantity: CLint scaled (mL/min/kg)

>  <Smiles data>
C=CC(=O)Nc1cc(Nc2nccc(-c3cn4c5c(cccc35)CCC4)n2)c(OC)cc1N(C)CCN(C)C

>  <Quantity unit>
mL/min/kg

>  <Result value>
64.8

$$$$
>  <Smiles data>
C=CC(=O)Nc1cc(Nc2nccc(-c3cn(C)c4ccccc34)n2)c(OC)cc1N(C)CCN(C)C

>  <Quantity unit>
mL/min/kg

>  <Result value>
29.7

$$$$

* * *

System: Epidermal growth factor receptor (Homo sapiens, UniProt P00533, L858R/T790M)
Sequence (P00533 25-1210 T790M/L858R limits assumed): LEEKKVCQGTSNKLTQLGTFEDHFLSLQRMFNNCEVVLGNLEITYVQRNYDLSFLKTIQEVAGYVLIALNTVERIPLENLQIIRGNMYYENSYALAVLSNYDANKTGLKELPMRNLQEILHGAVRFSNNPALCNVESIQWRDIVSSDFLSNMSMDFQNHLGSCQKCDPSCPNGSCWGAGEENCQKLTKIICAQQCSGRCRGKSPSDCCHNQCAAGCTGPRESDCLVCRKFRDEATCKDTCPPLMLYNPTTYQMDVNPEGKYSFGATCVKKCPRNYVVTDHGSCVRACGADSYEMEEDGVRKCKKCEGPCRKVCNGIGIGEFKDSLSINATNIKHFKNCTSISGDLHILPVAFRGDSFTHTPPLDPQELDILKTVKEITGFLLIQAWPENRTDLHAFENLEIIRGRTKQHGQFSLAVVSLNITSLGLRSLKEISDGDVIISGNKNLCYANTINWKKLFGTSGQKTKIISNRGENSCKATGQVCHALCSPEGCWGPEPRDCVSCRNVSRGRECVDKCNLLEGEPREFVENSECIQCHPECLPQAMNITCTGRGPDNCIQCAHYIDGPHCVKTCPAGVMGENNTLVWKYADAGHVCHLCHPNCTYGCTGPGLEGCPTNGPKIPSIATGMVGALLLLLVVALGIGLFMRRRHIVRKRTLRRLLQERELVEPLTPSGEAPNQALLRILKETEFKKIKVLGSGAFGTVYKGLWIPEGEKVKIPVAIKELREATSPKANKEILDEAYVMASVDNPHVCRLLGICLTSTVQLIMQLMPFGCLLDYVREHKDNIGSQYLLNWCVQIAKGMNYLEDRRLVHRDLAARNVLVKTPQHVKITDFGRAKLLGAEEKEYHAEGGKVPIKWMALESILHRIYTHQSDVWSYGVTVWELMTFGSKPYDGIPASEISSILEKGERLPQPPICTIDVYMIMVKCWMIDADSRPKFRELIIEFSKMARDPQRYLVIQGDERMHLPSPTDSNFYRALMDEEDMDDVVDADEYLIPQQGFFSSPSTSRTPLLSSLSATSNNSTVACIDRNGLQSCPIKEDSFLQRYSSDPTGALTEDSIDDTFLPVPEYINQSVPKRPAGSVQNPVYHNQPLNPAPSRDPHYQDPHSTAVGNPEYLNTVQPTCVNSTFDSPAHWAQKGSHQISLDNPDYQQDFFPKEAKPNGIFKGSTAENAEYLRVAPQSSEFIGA
Assay remarks: Inhibition of human recombinant cytoplasmic GST-tagged EGFR T790M/L858R double mutant (668 to 1210 residues) expressed in baculovirus using TK-substrate-biotin preincubated for 15 mins followed by substrate addition measured after 60 mins by FRET-based Z'-Lyte assay
pIC50: −log10 of the molar value.
Entries get a class label from measured pIC50. See ranges: b0 = under 7, b1 = from 7 up to 8, b2 = 8 and over

>  <Compound>
C=CC(=O)Nc1cc(Nc2nccc(-c3cn4c5c(cccc35)CCC4)n2)c(OC)cc1N(C)CCN(C)C(C)=O

>  <Group label>
b0

$$$$
>  <Compound>
C=CC(=O)Nc1cc(Nc2cc(-c3cn4c5c(cccc35)CCC4)nc(OC)n2)c(OC)cc1N(C)CCN(C)C

>  <Group label>
b1

$$$$
>  <Compound>
C=CC(=O)Nc1cc(Nc2ncnc(-c3cn(C)c4ccccc34)c2OC)c(OC)cc1N(C)CCN(C)C

>  <Group label>
b0

$$$$
>  <Compound>
C=CC(=O)Nc1cc(Nc2cc(-c3cn4c5c(cccc35)CCC4)ncn2)c(OC)cc1N(C)CCN(C)C

>  <Group label>
b2

$$$$
>  <Compound>
C=CC(=O)Nc1cc(Nc2nccc(-c3cn4c5c(cccc35)CCC4)n2)c(OC)cc1N1CCNC(=O)C1

>  <Group label>
b0

$$$$
>  <Compound>
C=CC(=O)Nc1cc(Nc2nccc(-c3cn4c5c(cccc35)CCC4)n2)c(OC)cc1N(C)CCO

>  <Group label>
b1

$$$$
>  <Compound>
C=CC(=O)Nc1cc(Nc2nccc(-c3cn4c5c(cccc35)CCC4)n2)c(OC)cc1N1CC(N(C)C)C1

>  <Group label>
b2

$$$$
>  <Compound>
C=CC(=O)Nc1cc(Nc2cc(-c3cn(C)c4ccccc34)ncn2)c(OC)cc1N(C)CCN(C)C

>  <Group label>
b2

$$$$
>  <Compound>
C=CC(=O)Nc1cc(Nc2nccc(-n3ncc4ccccc43)n2)c(OC)cc1N(C)CCN(C)C

>  <Group label>
b0

$$$$
>  <Compound>
C=CC(=O)Nc1cc(Nc2nccc(-c3cn4c5c(cccc35)CCC4)n2)c(OC)cc1N(C)CC(=O)N(C)C

>  <Group label>
b0

$$$$
>  <Compound>
C=CC(=O)Nc1cc(Nc2nccc(-c3cn4c5c(cccc35)CCC4)n2)c(OC)cc1N1CCC(CN(C)C)C1 (stereo not given)

>  <Group label>
b2

$$$$
>  <Compound>
C=CC(=O)Nc1cc(Nc2nccc(-n3cc(C)c4ccccc43)n2)c(OC)cc1N(C)CCN(C)C

>  <Group label>
b0

$$$$
>  <Compound>
C=CC(=O)Nc1cc(Nc2cc(-c3cn(C)c4ccccc34)nc(C)n2)c(OC)cc1N(C)CCN(C)C

>  <Group label>
b1

$$$$
>  <Compound>
C=CC(=O)Nc1cc(Nc2nccc(-c3cn4c5c(cccc35)CCC4)n2)c(OC)cc1N1CCN(C)CC1

>  <Group label>
b1

$$$$
